Entries and their EC50 values follow.
Target: IRE1a (Homo sapiens, UniProt O75460)
Sequence (O75460 19-977): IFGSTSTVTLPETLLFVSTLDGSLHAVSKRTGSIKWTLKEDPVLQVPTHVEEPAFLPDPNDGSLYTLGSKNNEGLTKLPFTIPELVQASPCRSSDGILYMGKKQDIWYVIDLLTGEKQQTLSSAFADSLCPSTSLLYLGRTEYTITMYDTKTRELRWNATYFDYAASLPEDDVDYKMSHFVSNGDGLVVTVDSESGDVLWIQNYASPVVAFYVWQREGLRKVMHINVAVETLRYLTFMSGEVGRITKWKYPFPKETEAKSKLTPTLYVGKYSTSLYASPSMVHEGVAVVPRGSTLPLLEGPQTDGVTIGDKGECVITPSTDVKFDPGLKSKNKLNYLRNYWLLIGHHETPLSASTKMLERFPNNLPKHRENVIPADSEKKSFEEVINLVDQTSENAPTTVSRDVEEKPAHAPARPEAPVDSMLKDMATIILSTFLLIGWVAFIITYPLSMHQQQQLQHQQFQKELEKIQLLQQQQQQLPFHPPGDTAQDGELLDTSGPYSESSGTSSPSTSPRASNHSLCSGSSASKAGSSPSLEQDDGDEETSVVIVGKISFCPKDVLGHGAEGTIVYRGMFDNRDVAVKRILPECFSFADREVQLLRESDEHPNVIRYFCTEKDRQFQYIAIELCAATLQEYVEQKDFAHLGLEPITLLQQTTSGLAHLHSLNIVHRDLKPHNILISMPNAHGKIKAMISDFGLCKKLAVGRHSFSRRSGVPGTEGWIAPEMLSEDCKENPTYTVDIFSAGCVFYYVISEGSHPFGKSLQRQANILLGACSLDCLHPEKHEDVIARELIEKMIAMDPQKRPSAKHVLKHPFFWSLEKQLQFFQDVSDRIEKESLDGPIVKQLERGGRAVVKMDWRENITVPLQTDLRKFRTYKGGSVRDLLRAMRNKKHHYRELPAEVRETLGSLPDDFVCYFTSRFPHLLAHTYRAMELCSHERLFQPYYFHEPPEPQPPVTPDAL
Experiment: IRE1a Endoribonuclease Nanoluciferase Assay (XBP1 luciferase reporter in 293 T cells)
Assay type: cell-based
Conditions: 293 T cells transfected with XBP1 luciferase reporter plasmid
Method: Compounds disclosed herein were assessed for disruption of IRE1 signaling using a IRE1a Endoribonuclease Nanoluciferase Assay. Briefly, 2.5×10^6 293 T cells were seeded in a 10 cm^2 tissue culture plate. About 24 hours later, the cells were transfected with Effectene. […] Plates were read on luminometer, 1000 ms integration time per well. […] Plates were read on luminometer, 1000 ms second integration time per well. […]

Worked examples, 3 compounds total:
compound	endpoint_result
CCc1cc(-c2cc(NC(=O)Cc3cccc(C(F)(F)F)c3)nn2C)cc2cnc(N[C@H]3CC[C@H](N)CC3)nc12 [Compound 2]	50 to 100 nM
CCc1cc(-c2cc(NC(=O)Cc3cc(C(F)(F)F)ccc3C(F)(F)F)nn2C)cc2cnc(N[C@H]3CC[C@H](NC(C)=O)CC3)nc12 [Compound 41]	> 100 nM
CCc1cc(-c2cc(NC(=O)Cc3cc(F)ccc3C(F)(F)F)nn2C)cc2cnc(N[C@H]3CC[C@H](N)CC3)nc12 [Compound 13]	> 100 nM

Reported EC50 (IRE1a (Homo sapiens, UniProt O75460)) for entry CCc1cc(-c2cc(NC(=O)Nc3ccc(OC4CCN(C)CC4)c(C(F)(F)F)c3)nn2C)cc2cnc(N[C@H]3CC[C@H](N)CC3)nc12 [Compound 4; Formic Acid] is ≤ 5 nM

Reported EC50 (IRE1a (Homo sapiens, UniProt O75460)) for entry CCc1cc(-c2cc(NC(=O)Cc3cccc(C(F)(F)F)c3)nn2C)cc2cnc(N[C@H]3CC[C@H](N(C)C)CC3)nc12 [Compound 39] is 5 to 50 nM

Reported EC50 (IRE1a (Homo sapiens, UniProt O75460)) for entry CCc1cc(-c2cc(NC(=O)Cc3ccc(C(F)(F)F)cc3)nn2C)cc2cnc(N[C@H]3CC[C@H](N)CC3)nc12 [Compound 6] is > 100 nM
